Data credit: patent US4024224A

# experiment-summary: Antitumor activity and toxicity on ascites Sarcoma 180 in CD 1 mice
# Format: in vivo
# setup-conditions: mouse, in vivo, ip; 50 mg./kg. i.p.; read-out: % Toxic Deaths
mortality by entry:
endpoint-label: mortality

1) COc1cccc2c1C(=O)c1c(O)c3c(c(O)c1C2=O)C[C@@](O)(C(=O)CN1CCN(CCO)CC1)C[C@@H]3O[C@H]1C[C@H](N)[C@H](O)[C@H](C)O1 :: 30%
2) COc1cccc2c1C(=O)c1c(O)c3c(c(O)c1C2=O)C[C@@](O)(C(=O)CN1CCN(C)CC1)C[C@@H]3O[C@H]1C[C@H](N)[C@H](O)[C@H](C)O1 [14-[N-(N'-methyl)-piperazino]-daunomycin] :: 50%
3) COc1cccc2c1C(=O)c1c(O)c3c(c(O)c1C2=O)C[C@@](O)(C(=O)CN1CCOCC1)C[C@@H]3O[C@H]1C[C@H](N)[C@H](O)[C@H](C)O1 :: 14%
4) COc1cccc2c1C(=O)c1c(O)c3c(c(O)c1C2=O)C[C@@](O)(C(=O)CN(CCO)CCO)C[C@@H]3O[C@H]1C[C@H](N)[C@H](O)[C@H](C)O1 :: 0%
5) COc1cccc2c1C(=O)c1c(O)c3c(c(O)c1C2=O)C[C@@](O)(C(=O)CN1CCCCC1)C[C@@H]3O[C@H]1C[C@H](N)[C@H](O)[C@H](C)O1 :: 40%
